# system_tested: Cytochrome P450 2C9 (Homo sapiens, UniProt P11712)
# Sequence (P11712 whole entry): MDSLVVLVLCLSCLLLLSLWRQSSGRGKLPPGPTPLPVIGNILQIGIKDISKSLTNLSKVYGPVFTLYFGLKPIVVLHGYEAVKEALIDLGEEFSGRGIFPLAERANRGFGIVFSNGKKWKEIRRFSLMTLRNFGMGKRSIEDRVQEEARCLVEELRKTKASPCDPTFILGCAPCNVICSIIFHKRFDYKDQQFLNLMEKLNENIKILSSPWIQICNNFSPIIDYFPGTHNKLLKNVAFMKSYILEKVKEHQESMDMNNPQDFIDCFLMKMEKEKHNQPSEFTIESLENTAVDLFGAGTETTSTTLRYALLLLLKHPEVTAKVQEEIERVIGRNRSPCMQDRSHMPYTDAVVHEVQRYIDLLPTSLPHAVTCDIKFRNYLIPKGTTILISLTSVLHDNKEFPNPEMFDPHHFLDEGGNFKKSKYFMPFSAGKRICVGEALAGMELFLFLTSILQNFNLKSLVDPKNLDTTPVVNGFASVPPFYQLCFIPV
pIC50: −log10 of the molar value.
parameter_measured: pIC50

get_value(item= Cc1cccc(-c2noc(C3CC(=O)N(c4ccc(F)cc4)C3)n2)c1 (racemic) , readout=pIC50) returns < 4.96

* * *

# system_tested: UniProt:P41594
# Sequence (P41594 21-1212 limits assumed): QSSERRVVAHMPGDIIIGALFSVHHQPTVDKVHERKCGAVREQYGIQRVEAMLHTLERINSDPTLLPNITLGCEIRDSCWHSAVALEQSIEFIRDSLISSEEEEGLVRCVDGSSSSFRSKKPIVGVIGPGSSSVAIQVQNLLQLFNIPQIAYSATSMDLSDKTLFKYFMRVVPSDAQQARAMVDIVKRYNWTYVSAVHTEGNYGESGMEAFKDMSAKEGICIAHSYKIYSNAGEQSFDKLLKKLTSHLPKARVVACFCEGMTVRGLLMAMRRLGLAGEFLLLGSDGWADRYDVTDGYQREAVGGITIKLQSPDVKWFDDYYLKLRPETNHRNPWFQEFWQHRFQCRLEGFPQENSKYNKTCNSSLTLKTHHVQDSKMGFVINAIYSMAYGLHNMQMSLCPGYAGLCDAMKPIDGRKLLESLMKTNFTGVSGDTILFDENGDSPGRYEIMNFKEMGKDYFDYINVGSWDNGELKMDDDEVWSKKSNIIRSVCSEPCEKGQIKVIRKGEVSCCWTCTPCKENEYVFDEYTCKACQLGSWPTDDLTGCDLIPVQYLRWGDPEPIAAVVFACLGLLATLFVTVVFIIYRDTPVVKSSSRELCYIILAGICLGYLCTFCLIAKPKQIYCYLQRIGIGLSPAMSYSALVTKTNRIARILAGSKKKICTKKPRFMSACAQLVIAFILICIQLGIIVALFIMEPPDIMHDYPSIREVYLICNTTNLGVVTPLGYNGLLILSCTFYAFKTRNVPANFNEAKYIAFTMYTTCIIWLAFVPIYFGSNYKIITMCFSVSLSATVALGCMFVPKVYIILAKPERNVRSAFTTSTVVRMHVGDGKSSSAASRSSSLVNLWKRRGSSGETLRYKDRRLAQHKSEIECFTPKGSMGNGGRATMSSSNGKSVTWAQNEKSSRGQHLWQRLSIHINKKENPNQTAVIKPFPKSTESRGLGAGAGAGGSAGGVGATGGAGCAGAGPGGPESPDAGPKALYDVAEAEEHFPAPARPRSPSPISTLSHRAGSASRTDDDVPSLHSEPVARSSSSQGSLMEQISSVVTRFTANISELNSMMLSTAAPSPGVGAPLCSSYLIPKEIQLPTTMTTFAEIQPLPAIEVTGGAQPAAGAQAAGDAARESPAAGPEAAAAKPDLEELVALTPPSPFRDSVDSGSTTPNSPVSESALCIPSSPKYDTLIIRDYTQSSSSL
# measurement_protocol: Positive allosteric modulation of human mGluR5 expressed in HEK293A cells assessed as stimulation of glutamate-induced calcium flux by FLIPR method
# Assay type: functional, cell-based
# condition_description: HEK293-A
Measured Emax by item
Give a bare numeral; the unit % is implied.

Recorded results for 5 compounds are shown here.
{"compound": "COc1ccc(N2CC(c3nc(-c4cccc(Cl)c4)no3)CC2=O)cc1 (stereo not given)", "system_tested": "UniProt:P41594", "display_unit": "%", "Emax": 47}
{"compound": "Cc1cccc(-c2noc(C3CC(=O)N(c4ccc(Cl)cc4)C3)n2)c1 (stereo not given)", "system_tested": "UniProt:P41594", "display_unit": "%", "Emax": 1.6}
{"compound": "O=C1CC(c2nc(-c3cccc(Cl)c3)no2)CN1c1ccccc1Cl (stereo not given)", "system_tested": "UniProt:P41594", "display_unit": "%", "Emax": -31}
{"compound": "O=C1CC(c2nc(-c3cccc(F)c3)no2)CN1c1ccc(Cl)c(Cl)c1 (stereo not given)", "system_tested": "UniProt:P41594", "display_unit": "%", "Emax": 140}
{"compound": "O=C1CC(c2nc(-c3cccc(Cl)c3)no2)CN1c1ccc(F)cc1 (racemic)", "system_tested": "UniProt:P41594", "display_unit": "%", "Emax": 55}

GET /value?item= Cc1ccc(N2CC(c3nc(-c4ccccc4)no3)CC2=O)cc1 (stereo not given) &field=Emax returns 41

Notebook: COc1ccccc1N1CC(c2nc(-c3cccc(Cl)c3)no2)CC1=O (stereo not given) , Emax read as -31

Value of measured Emax for the entry COc1cccc(-c2noc(C3CC(=O)N(c4ccc(Cl)cc4)C3)n2)c1 (stereo not given) : 50

Value of measured Emax for the entry Cc1ccc(N2CC(c3nc(-c4cccc(Cl)c4)no3)CC2=O)cc1C (stereo not given) : 57

Given item Cc1cccc(-c2noc(C3CC(=O)N(c4ccc(F)cc4)C3)n2)c1 (racemic) , the value recorded as its Emax is 78

* * *

# measurement_protocol: Solubility of the compound in […] by UPLC method
# Assay type: physicochemical
parameter_measured: solubility (µM)
Kindly provide the numeric value in µM only, without the unit symbol.

{"compound": "Cc1cccc(-c2noc(C3CC(=O)N(c4ccc(Cl)cc4)C3)n2)n1 (stereo not given)", "solubility [µM]": 26}

Note to self: solubility recorded for CC(C)N1CC(c2nc(-c3cccc(Cl)c3)no2)CC1=O (stereo not given) was 23

// solubility value for O=C1CC(c2nc(Cc3ccccc3)no2)CN1c1ccc(F)cc1 (stereo not given) : 23

Short answer for O=C1CC(c2nc(-c3cccc(Cl)c3)no2)CN1Cc1ccc(F)cc1 (stereo not given) : solubility was 23

Reported solubility of O=C1CC(c2nc(-c3cccc(Cl)c3)no2)CN1c1ccc(F)cc1 (racemic) : 15

* * *

# measurement_protocol: Plasma protein binding in rat plasma
# Type: ADME, cell-free
# condition_description: read-out: PPB (converted)
parameter_measured: fraction unbound

// field: fraction unbound; key: Cc1cccc(-c2noc(C3CC(=O)N(c4ccc(F)cc4)C3)n2)c1 (single isomer, unassigned; (-)) ; value = 0.003

Ref: ChEMBL document CHEMBL2069226
